Data credit: patent US20050008615A1

Molecular target: IL-18 receptor (heterodimeric surface receptor composed of α- and β-chains) on KG-1 cells
Experiment: cell-based or functional assay
Listing of recorded NF-κB KG-1 EC50 (ng/ml), av. by entry.
Please reply with the bare figure in ng/mL and do not write the unit itself.

binder	measured.value
human IL-18 C38S, C68D, L144C (SEQ ID NO:7) monopegylated at C144 with 30K PEG (ligand, methoxy polyethylene glycol maleimide, 30,000 Da, on Cys 144, also called IL-18 C144PEG30K) YFGKLESKLSVIRNLNDQVLFIDQGNRPLFEDMTDSDSRDNAPRTIFIISMYKDSQPRGMAVTISVKDEKISTLSCENKIISFKEMNPPDNIKDTKSDIIFFQRSVPGHDNKMQFESSSYEGYFLACEKERDLFKLILKKEDECGDRSIMFTVQNED	38

// below: NF-κB KG-1 EC50 (ng/ml), av. requested for another binder
Q: Tell us which NF-κB KG-1 EC50 (ng/ml), av. value is on record for human IL-18 C38S, C68S, L144C (SEQ ID NO:9) monopegylated at C144 with 30K PEG (ligand, methoxy polyethylene glycol maleimide, 30,000 Da, on Cys 144, also called IL-18 C144PEG30K) YFGKLESKLSVIRNLNDQVLFIDQGNRPLFEDMTDSDSRDNAPRTIFIISMYKDSQPRGMAVTISVKSEKISTLSCENKIISFKEMNPPDNIKDTKSDIIFFQRSVPGHDNKMQFESSSYEGYFLACEKERDLFKLILKKEDECGDRSIMFTVQNED
Ans: 44
